target_system: human MC4 receptor (Homo sapiens, UniProt P32245)
Sequence (P32245 whole entry): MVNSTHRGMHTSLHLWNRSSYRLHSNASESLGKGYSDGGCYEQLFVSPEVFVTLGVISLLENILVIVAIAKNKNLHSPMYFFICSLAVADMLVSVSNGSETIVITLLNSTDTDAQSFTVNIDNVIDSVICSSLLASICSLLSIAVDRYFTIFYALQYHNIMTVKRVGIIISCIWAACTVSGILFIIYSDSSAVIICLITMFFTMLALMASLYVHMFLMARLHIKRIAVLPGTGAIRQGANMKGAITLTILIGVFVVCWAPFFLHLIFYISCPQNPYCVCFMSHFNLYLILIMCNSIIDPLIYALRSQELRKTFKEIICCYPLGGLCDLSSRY
procedure_details: Human MC4 receptor activation, cAMP production in cells transiently expressing the receptor
applied_conditions: FreeStyle 293-F cells expressing human MC4 receptor, α-MSH maximum = 100%
Description: (1) Construction of Human MC Receptor-Expressing Vector […] Measurement was carried out by using a LANCE (registered trademark) Ultra cAMP Kit (PerkinElmer, Inc.) in accordance with the attached instructions. […] The amount of cAMP was calculated using EnVision (registered trademark) (PerkinElmer Inc.). […]
pEC50: −log10 of the molar value. Counter-ions that a name gives are not always drawn.
assay_endpoint: pEC50

Solved entries:
C[C@H]1CN(C(=O)[C@H](Cc2ccccc2Cl)N(C)C)CCN1C(=O)[C@@H]1CN(C(C)(C)C)C[C@H]1c1ccc(F)cc1F [Example 28, dihydrochloride]
8.26
CC(=O)N[C@@H](Cc1ccccc1Cl)C(=O)N1CCN(C(=O)C2CN(C(C)(C)C)CC2c2cc(F)c(Cl)c(F)c2)[C@@H](C)C1 (stereo partly drawn)
6.74
CC(=O)N[C@@H](CC1CCCC1)C(=O)N1CCN(C(=O)[C@@H]2CN(C(C)(C)C)C[C@H]2c2ccc(F)cc2F)[C@@H](C)C1.Cl [Example 16, monohydrochloride]
7.85
CC(=O)N[C@@H](CC(C)(C)C)C(=O)N1CCN(C(=O)[C@@H]2CN(C)C[C@H]2c2ccc(F)cc2F)[C@@H](C)C1
5.30

[a] CC(=O)N[C@H](C(=O)N1CCN(C(=O)[C@@H]2CN(C(C)(C)C)C[C@H]2c2ccc(F)cc2F)[C@@H](C)C1)C1CCCCC1.Cl [Example 6, monohydrochloride]
[b] CC(=O)N[C@@H](CC(C)(C)C)C(=O)N1CCN(C(=O)[C@@H]2CN(CC3CC3)C[C@H]2c2ccc(F)cc2F)[C@@H](C)C1
[c] CC(=O)N[C@H](C(=O)N1CCN(C(=O)[C@@H]2CN(C(C)(C)C)C[C@H]2c2ccc(F)cc2F)[C@@H](C)C1)C1CCCC1
INPUT: Rank ascending by pEC50. Output spec: labels arranged per the requested ranking.
OUTPUT: b, c, a
(b: 6.00, c: 6.66, a: 7.72)

[I] CC(=O)N[C@@H](CC(C)(C)C)C(=O)N1CCN(C(=O)[C@@H]2CN(C3CCCCC3)C[C@H]2c2ccc(F)cc2F)[C@@H](C)C1
[II] CC(=O)N[C@@H](CC1CCC(C)(C)CC1)C(=O)N1CCN(C(=O)[C@@H]2CN(C(C)(C)C)C[C@H]2c2ccc(F)cc2F)[C@@H](C)C1 [Example 18, monohydrochloride]
[III] CC(=O)N[C@@H](CC(C)(C)C)C(=O)N1CCN(C(=O)[C@@H]2CN(C(C)(C)C)C[C@H]2c2ccc(F)cc2F)[C@@H](C)C1.Cl
INPUT: Place the items in sequence of falling pEC50. Write out the labels following the order that was asked for.
OUTPUT: III, II, I
(III: 8.00, II: 7.21, I: 6.92)

Values compiled from patent US10710988B2.
